- Test system: MDA-N
- Assay protocol: NCI tumour cell line growth inhibition, 48 h
Attribute measured: TGI

Completed entries (count: 3):
CC1CC(C#N)=C2NCCCCN2C1=O (centres undefined) : > 100 µM
CN(O)C(=O)Cc1ccc(OCc2cccc(Cl)c2)cc1 : > 100 µM
CC(C)(CO)N1C(=O)c2ccccc2C1(O)c1ccc(Cl)cc1 (centres undefined) : > 100 µM

Shift focus to the following entry.
Incoming: What TGI value was documented for this compound, COc1cc([C@@H]2c3cc4c(cc3C[C@H]3COC(=O)[C@@H]32)OCO4)cc(OC)c1OC ?
Outgoing: 0.00582 µM

---

- Tested on: OVCAR-8 ovarian
- Assay protocol: NCI tumour cell line growth inhibition, 48 h
Attribute measured: TGI

Use these answered entries as a reference point.
S=C1NCCN1C1=Nc2ccccc2CO1 : > 100 µM
NCCCC(N)C(=O)O (stereo unspecified) : > 100 µM
CC(=O)Nc1ccc(Cl)c(Cl)c1 : > 100 µM
COc1cc2c(NCCCCCCO[N+](=O)[O-])ncnc2c(OC)c1OC : 64.4 µM
CO/N=C1/c2sccc2[C@H](NC(=O)CNC(=O)OC(C)(C)C)[C@@H]1O : > 100 µM

Incoming: Fill blank: measured TGI of the compound CC(=O)OCCc1cccnc1/C=N/O is ____.
Outgoing: > 100 µM

Incoming: Recorded TGI of CC[n+]1ccc2c(c1)C(=O)c1nccc3c1c-2nc1ccccc13 , please.
Outgoing: 6.47 µM

Incoming: State the recorded TGI for this entry: CCN1CCN(c2nc(NCCNc3ccnc4cc(Cl)ccc34)c3ccccc3n2)CC1
Outgoing: 5.96 µM

Incoming: Form field: reported TGI of CCC[C@H](C)[C@H]1NC(=O)[C@@H](NC(=O)[C@@H](CC(C)C)N(C)C(=O)C2CCCN2C(=O)[C@H](C)O)[C@@H](C)OC(=O)[C@H](CC(C)C)N(C)C(=O)[C@@H]2CCCN2C(=O)[C@H](CC(C)C)NC(=O)[C@@H](C)C(=O)[C@H](C(C)C)OC(=O)C[C@@H]1O (stereo partly specified)
Outgoing: 0.0484 µM

Incoming: Tell me the measured TGI of O=C(O/N=C1/CCC/C1=C\c1ccccc1)c1ccc([N+](=O)[O-])cc1 , please.
Outgoing: > 100 µM

Incoming: Request the reported TGI associated with COc1cccc(C2c3cc4c(cc3OC(N3CCCC3)C2C)OCO4)c1OC (stereo unspecified)
Outgoing: 39.8 µM

Incoming: Fill in the blank: the reported TGI of C[C@]12CCC(=O)C=C1CC[C@@H]1C2CC[C@]2(C)NC(=O)C(C#N)CC12 (stereo partly specified) is ____.
Outgoing: > 100 µM

---

- System: CCRF-CEM leukemia
- Assay protocol: NCI tumour cell line growth inhibition, 48 h
Attribute measured: GI50

Sample answers from the record:
COc1nc2c(cc1S(=O)(=O)c1ccccc1)CCc1c-2cnn1-c1ccccc1Cl : 7.84 µM
Fc1ccc(-c2nn(-c3ccccc3)cc2-c2nc3ccccc3o2)cc1 : 3.43 µM

Continue with the compound presented below.
Incoming: For the compound COc1ccccc1NC(=O)c1ccc(/C=C/C(=O)c2nccn2C)cc1 , what GI50 is on record?
Outgoing: 0.669 µM

---

- Test system: IGROV1 ovarian
- Assay protocol: NCI tumour cell line growth inhibition, 48 h
The following compounds are shown together with reported TGI values.

For orientation, consider the following solved cases.
c1ccc2c(c1)CCCN1CCc3ccccc3C21 (stereo not drawn) : > 100 µM
C/C(=N\NC(N)=S)c1ccc(C)cc1C : > 100 µM

Then this compound:
Incoming: For O=C1C(Cl)N(c2ccccc2)C1c1c[nH]c2ccccc12 (stereo not drawn) , what is its reported TGI?
Outgoing: > 100 µM
